molecular target: human Sortilin (Homo sapiens (Human)); test: Creoptix (GCI) binding kinetics, human Sortilin; conditions: Free acid, screened at 1 μM
Sequence (Q99523 78-755): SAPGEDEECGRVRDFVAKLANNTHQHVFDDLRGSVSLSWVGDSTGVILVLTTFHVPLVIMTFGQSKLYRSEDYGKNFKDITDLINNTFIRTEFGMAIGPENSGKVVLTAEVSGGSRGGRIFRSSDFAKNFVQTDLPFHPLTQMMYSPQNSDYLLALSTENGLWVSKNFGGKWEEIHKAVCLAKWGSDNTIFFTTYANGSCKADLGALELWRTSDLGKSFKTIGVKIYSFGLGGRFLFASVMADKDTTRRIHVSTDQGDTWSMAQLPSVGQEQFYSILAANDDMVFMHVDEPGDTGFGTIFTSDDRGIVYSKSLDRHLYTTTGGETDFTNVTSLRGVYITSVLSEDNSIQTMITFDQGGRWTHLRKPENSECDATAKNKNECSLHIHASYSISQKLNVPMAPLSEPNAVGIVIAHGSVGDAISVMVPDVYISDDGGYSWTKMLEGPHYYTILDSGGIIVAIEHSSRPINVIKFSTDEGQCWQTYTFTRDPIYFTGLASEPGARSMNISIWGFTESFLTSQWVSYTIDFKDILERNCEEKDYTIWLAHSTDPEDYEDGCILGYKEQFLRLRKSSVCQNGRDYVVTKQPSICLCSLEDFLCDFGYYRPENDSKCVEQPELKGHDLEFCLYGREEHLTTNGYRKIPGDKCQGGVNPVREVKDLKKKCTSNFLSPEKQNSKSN
MEASUREMENT TYPE: Kd (nM)
Answers are plain numbers, in nM.

CC(C)(C)CC[C@H](NCc1cnc2ccccc2c1)C(=O)O | 895
COc1ccc([C@H](C)N[C@@H](CCC(C)(C)C)C(=O)O)cc1C | 277
COc1cccc(CN[C@@H](CCC(C)(C)C)C(=O)O)c1C | 443
CC(C)(C)CC[C@H](NCc1ccc2c(c1)CCCO2)C(=O)O | 101
CC(C)(C)CC[C@H](NCc1ccc2c(c1)OCCO2)C(=O)O | 5960
COc1cc(Br)cc(CN[C@@H](CCC(C)(C)C)C(=O)O)c1 | 432

Answer for every listed entry: what is its Kd? The entries follow.
1. COc1ccc([C@H](N[C@@H](CCC(C)(C)C)C(=O)O)C(F)F)cc1OC
2. COc1ccc([C@@H](N[C@@H](CCC(C)(C)C)C(=O)O)C(F)F)cc1OC
3. COc1ccc([C@@H](C)N[C@@H](CCC(C)(C)C)C(=O)O)cc1OC
4. CC(C)(C)CC[C@H](NCc1cncnc1)C(=O)O

Result:
[183, 625, 443, 1980]

Answer for every listed entry: what is its Kd? The entries follow.
1. Cc1ccc(CN[C@@H](CCC(C)(C)C)C(=O)O)c2ccn(C)c12
2. CC(C)(C)CC[C@H](NCc1cccc2c1OCO2)C(=O)O
3. COc1cncc(CN[C@@H](CCC(C)(C)C)C(=O)O)c1
4. COc1ccc([C@@H](N[C@@H](CCC(C)(C)C)C(=O)O)C(F)(F)F)cc1OC
5. COc1cccc(CN[C@@H](CCC(C)(C)C)C(=O)O)c1.Cl
6. COc1ccc(OC)c(CN[C@@H](CCC(C)(C)C)C(=O)O)c1

Result:
97.6
285
310
351
1930
1020

Answer for every listed entry: what is its Kd? The entries follow.
1. COc1cc(Cl)cc(CN[C@@H](CCC(C)(C)C)C(=O)O)c1
2. COc1ccc([C@H](N[C@@H](CCC(C)(C)C)C(=O)O)C(F)(F)F)cc1OC
3. COc1cccc([C@H](N[C@@H](CCC(C)(C)C)C(=O)O)C(F)(F)F)c1
4. COc1ccc(CN[C@@H](CCC(C)(C)C)C(=O)O)cc1OC

Result:
450
132
230
747

---

assay: Blood-brain-barrier permeability of study compounds in mice after PO administration; settings: mouse, plasma, po, Total Plasma Concentration (ng/ml) T = 1 hour, T = 1 hour
Counter-ions that a name gives are not always drawn.
Field: concentration at 1 h. Provide a value for each of the molecules that follow.
State the value, then name its unit.

Would you please look over these solved cases?
Cc1cccc(NC(=O)c2ccc(C(F)(F)F)cc2C(=O)O)n1 [Comparative Example 1, reference compound] | 393 ng/mL
COc1cccc(CN[C@@H](CCC(C)(C)C)C(=O)O)c1.Cl | 3560 ng/mL

Let's switch to this molecule now.
Ask: What does the data say about its concentration at 1 h? Entry: Cn1ccc2c(CN[C@@H](CCC(C)(C)C)C(=O)O)cccc21 [Example 6, hydrochloride]
Result: 138 ng/mL

---

assay: Plasma protein binding by rapid equilibrium dialysis; assay type: in vitro ADME; settings: pH 7.4, CD1-mouse plasma, 37° C., read-out: Mouse Plasma Unbound (Fu, %)
Where a name gives a salt, the structure may show the parent alone.
Field: fraction unbound at 4 h, 5 μM. Provide a value for each of the molecules that follow.
Give bare numbers.

COc1cccc(CN[C@@H](CCC(C)(C)C)C(=O)O)c1.Cl | 0.033

Let's switch to this molecule now.
Ask: What does the data say about its fraction unbound at 4 h, 5 μM? Entry: Cn1ccc2c(CN[C@@H](CCC(C)(C)C)C(=O)O)cccc21 [Example 6, hydrochloride]
Result: 0.058
